Test: Pharmacokinetics of SAR405838 (whole-blood concentrations) in combination
Assay type: in vivo, human
Conditions: human, whole blood, oral, DL3a SAR405838 300 mg QD + pimasertib 60 mg QD; C2D1; read-out: SAR405838 AUC0–24, mean ± SD

{"columns": ["Compound", "AUC(0-t)"],
 "data": [
  ["CC(C)(C)C[C@@H]1N[C@@H](C(=O)N[C@H]2CC[C@H](O)CC2)[C@H](c2cccc(Cl)c2F)[C@]12C(=O)Nc1cc(Cl)ccc12 [SAR405838]", "21200 ng·h/mL"]
]}

----------
Assay: Pharmacokinetics of SAR405838 (whole-blood concentrations) in combination
Assay type: in vivo, human
Conditions: human, whole blood, oral, DL3a SAR405838 300 mg QD + pimasertib 60 mg QD; C1D2; read-out: SAR405838 Cmax, mean ± SD

{"columns": ["Smiles Str", "Cmax, ng/mL"],
 "data": [
  ["CC(C)(C)C[C@@H]1N[C@@H](C(=O)N[C@H]2CC[C@H](O)CC2)[C@H](c2cccc(Cl)c2F)[C@]12C(=O)Nc1cc(Cl)ccc12", 1490]
]}

These entries and their values trace back to paper PMC6354023.
